tested on: H3K18Ac in HB-CLS-2 cells; experiment: H3K18AC in-cell western (ICW) assay; type: cell-based; settings: H3K18Ac in-cell western; read-out: CREBBP ICW IC50
assayReadout: IC50 (nM)

Previously resolved entries follow.
INSERT INTO assay_data (molecule, recordedmeasurement) VALUES
  ('CCn1ncc(CN(C)C(=O)c2cc(-c3cnc(N)c(C)n3)nc3ccc(Cl)cc23)c1C [Compound 474]', 6530),
  ('CCn1ncc(CN(C)C(=O)c2nc(-c3cccc(-c4ccn[nH]4)c3)nc3ccc(Cl)cc23)c1C [Compound 145]', 6500);

I: CNCCNc1ccc(-c2cc(C(=O)N(C)Cc3cn[nH]c3C)c3cc(Cl)ccc3n2)nc1C [Compound 564]
II: CCn1ncc(CN(C)C(=O)c2cc(-c3ccc(NCCNC)c(C)n3)nc3ccc(Cl)cc23)c1C [Compound 3]
III: CCn1ncc(CN(C)C(=O)c2nc(-c3ccc(NC4CCOCC4)cn3)nc3ccc(Cl)cc23)c1C [Compound 58]
IV: CCn1ncc(CN(C)C(=O)c2nc(-c3ccc(OCC(O)CN4CCCC4)cc3Cl)nc3ccc(Cl)cc23)c1C (stereo not shown) [Compound 15]
V: CCn1ncc(CN(C)C(=O)c2nc(-c3cc(C)c4c(N)[nH]nc4c3)nc3ccc(Cl)cc23)c1C [Compound 459]
Request: Rank the 5 molecules: largest IC50 first, smallest last. Please write the labels in the order that was asked for.
Result: I, III, IV, V, II
(I: 20000 nM, III: 670 nM, IV: 150 nM, V: 60.4 nM, II: 40 nM)

====

test system: H3K18Ac in HB-CLS-2 cells; test: H3K18AC in-cell western (ICW) assay; assay type: cell-based; conditions: H3K18Ac in-cell western; read-out: CREBBP ICW IC50
pIC50: −log10 of the molar value.
assayReadout: pIC50

INSERT INTO results (compound, targetofassay, recordedmeasurement) VALUES
  ('CCc1ncc(CN(C)C(=O)c2cc(-c3cc(NCCNC)cc(OC)n3)nc3ccc(Cl)cc23)n1C [Compound 567]', 'H3K18Ac in HB-CLS-2 cells', 7.11),
  ('CCn1ncc(CN(C)C(=O)c2nc(-c3ccc(OCCN(C)S(C)(=O)=O)c(OC)c3)nc3ccc(Cl)cc23)c1C [Compound 114]', 'H3K18Ac in HB-CLS-2 cells', 5.55),
  ('CCn1ncc(CN(C)C(=O)c2nc(-c3cc(C(=O)NCCN4CCCC4)[nH]n3)nc3ccc(Cl)cc23)c1C [Compound 80]', 'H3K18Ac in HB-CLS-2 cells', 5.92);

a: CCc1nc(-c2cc(C(=O)N(C)Cc3cnn(CC)c3C)c3cc(Cl)ccc3n2)ccc1NCCN(C)C [Compound 573]
b: CCn1ncc(CN(C)C(=O)c2cc(-c3ccc(OCCCO)cn3)nc3ccc(Cl)cc23)c1C [Compound 166]
Request: # returns the entry with the larger pIC50; inputs a and b Give the label of your selection.
Result: a

====

biological target: CREBBP (1084-1701) (Homo sapiens, UniProt Q92793); construct: measured in the following biochemical assay using CREBBP (1084-1701); purchased; test: Biochemical assay for CREBBP (1084-1701), SAMDI; settings: SAMDI, read-out: CREBBP Biochemistry IC50
Sequence (Q92793 1084-1701): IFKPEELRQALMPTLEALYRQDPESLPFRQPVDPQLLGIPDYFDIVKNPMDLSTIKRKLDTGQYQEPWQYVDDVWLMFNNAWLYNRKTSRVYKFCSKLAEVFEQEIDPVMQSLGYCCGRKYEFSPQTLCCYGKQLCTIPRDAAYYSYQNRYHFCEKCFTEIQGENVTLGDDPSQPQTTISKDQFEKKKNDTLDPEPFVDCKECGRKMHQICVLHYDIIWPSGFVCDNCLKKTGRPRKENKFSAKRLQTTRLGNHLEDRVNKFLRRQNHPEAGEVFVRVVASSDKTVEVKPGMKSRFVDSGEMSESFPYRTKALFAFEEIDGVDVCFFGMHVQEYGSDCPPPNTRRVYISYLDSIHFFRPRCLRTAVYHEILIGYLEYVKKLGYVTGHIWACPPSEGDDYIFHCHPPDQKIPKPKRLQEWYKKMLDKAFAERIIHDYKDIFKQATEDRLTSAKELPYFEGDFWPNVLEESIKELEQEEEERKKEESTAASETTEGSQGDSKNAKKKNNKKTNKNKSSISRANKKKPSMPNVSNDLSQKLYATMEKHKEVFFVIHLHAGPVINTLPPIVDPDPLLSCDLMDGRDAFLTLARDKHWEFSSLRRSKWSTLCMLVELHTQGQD
assayReadout: IC50 (nM)

Previously resolved entries follow.
INSERT INTO assay_data (molecule, endpointunit, recordedmeasurement) VALUES
  ('CCn1ncc(CN(C)C(=O)c2nc(-c3cc(C)c4c(c3)NCCN4)nc3ccc(Cl)cc23)c1C', 'nM', 1430),
  ('CCn1ncc(CN(C)C(=O)c2nc(-c3cc(Cl)cc(CNC4CCNCC4)c3)nc3ccc(Cl)cc23)c1C', 'nM', 2000);

a: CCn1ncc(CN(C)C(=O)c2nc(-c3cccc(Cl)n3)nc3ccc(Cl)cc23)c1C
b: CCn1ncc(C(C)N(C)C(=O)c2cc(-c3ccc(NCCNC)c(C)n3)nc3ccc(Cl)cc23)c1C (stereo not drawn)
c: CCn1ncc(CN(C)C(=O)c2nc(-c3ccc(OCCO)cn3)nc3ccc(Cl)cc23)c1C
d: CCn1ncc(CN(C)C(=O)c2cc(-c3ccc(N4CC(N(C)C)C4)c(C)n3)nc3ccc(Cl)cc23)c1C
Request: Arrange items by their IC50 values in increasing order. Please write the labels in the order that was asked for.
Result: b, d, a, c
(b: 183 nM, d: 846 nM, a: 1700 nM, c: 17000 nM)

====

biological target: CREBBP (1084-1701) (Homo sapiens); construct: measured in the following biochemical assay using CREBBP (1084-1701); purchased; experiment: Biochemical assay for CREBBP (1084-1701), SAMDI; details: SAMDI, read-out: CREBBP Biochemistry IC50
assayReadout: IC50 (nM)

Previously resolved entries follow.
INSERT INTO assay_data (compound, endpointunit, recordedmeasurement) VALUES
  ('CCn1ncc(CN(C)C(=O)c2cc(-c3cc(-c4ncc[nH]4)n(C)n3)nc3ccc(Cl)cc23)c1C [Compound 542]', 'nM', 6.92),
  ('CCn1ncc(CN(C)C(=O)c2nc(-c3ccc(OCCN4CCCC4)cc3Cl)nc3ccc(Cl)cc23)c1C [Compound 40]', 'nM', 110),
  ('CCn1ncc(CN(C)C(=O)c2cc(-c3ccccc3)nc3ccc(C)cc23)c1C [Compound 150]', 'nM', 6600),
  ('CCc1noc(CN(C)C(=O)c2nc(-c3cc4c(NC)[nH]nc4cc3C)nc3ccc(Cl)cc23)c1C [Compound 615]', 'nM', 9.75),
  ('CCn1ncc(CN(C)C(=O)c2nc(-c3ccccc3C#N)nc3ccc(Cl)cc23)c1C [Compound 294]', 'nM', 220),
  ('CCn1nnc(CN(C)C(=O)c2nc(-c3ccccc3Cl)nc3ccc(Cl)cc23)c1C [Compound 292]', 'nM', 50000);

1: CCn1ncc(CN(C)C(=O)c2cc(-c3ccccc3Cl)nc3c(C)cccc23)c1C [Compound 340]
2: CCn1ncc(CN(C)C(=O)c2nc(-c3ccccc3Cl)nc3ccc(C)cc23)c1C [Compound 370]
Request: # returns the entry with the larger IC50; inputs 1 and 2 Give the label of your selection.
Result: 1

====

Target: EP300 (P300(1048-1664)) (Homo sapiens)
Construct: P300(1048-1664)
Sequence (Q09472 1048-1664): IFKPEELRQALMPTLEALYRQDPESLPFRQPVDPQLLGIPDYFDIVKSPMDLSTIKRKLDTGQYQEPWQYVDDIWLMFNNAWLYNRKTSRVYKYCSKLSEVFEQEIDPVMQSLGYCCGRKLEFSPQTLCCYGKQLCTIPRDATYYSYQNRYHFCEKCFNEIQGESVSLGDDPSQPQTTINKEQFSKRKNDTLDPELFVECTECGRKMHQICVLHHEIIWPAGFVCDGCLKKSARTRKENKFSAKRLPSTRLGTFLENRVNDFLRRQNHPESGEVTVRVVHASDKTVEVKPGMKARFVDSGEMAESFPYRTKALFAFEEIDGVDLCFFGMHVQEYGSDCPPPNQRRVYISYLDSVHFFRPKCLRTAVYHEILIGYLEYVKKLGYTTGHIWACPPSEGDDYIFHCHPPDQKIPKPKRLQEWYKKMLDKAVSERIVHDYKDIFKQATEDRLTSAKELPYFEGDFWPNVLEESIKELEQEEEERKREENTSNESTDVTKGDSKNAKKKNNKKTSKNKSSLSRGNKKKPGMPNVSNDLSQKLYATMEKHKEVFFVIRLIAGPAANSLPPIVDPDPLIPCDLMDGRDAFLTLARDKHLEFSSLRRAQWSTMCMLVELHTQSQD
Assay: Biochemical assay for EP300, SAMDI
Settings: EP300, SAMDI; read-out: EP300 Biochemistry IC50
pIC50: −log10 of the molar value.
assayReadout: pIC50

INSERT INTO assay_data (compoundstructure, assayreadout, recordedmeasurement) VALUES
  ('CCn1ncc(CN(C)C(=O)c2nc(-c3cc(N)cc(Cl)c3)nc3ccc(Cl)cc23)c1C', 'pIC50', 8.13),
  ('CCn1ncc(CN(C)C(=O)c2cc(-c3ccc(NCCS(C)(=O)=O)c(C)n3)nc3ccc(Cl)cc23)c1C', 'pIC50', 7.95),
  ('CCn1ncc(CN(C)C(=O)c2cc(-c3ccc(NCCNC)c(C(F)(F)F)n3)nc3ccc(Cl)cc23)c1C', 'pIC50', 8.02);

====

tested on: H3K18Ac in HB-CLS-2 cells; experiment: H3K18AC in-cell western (ICW) assay; type: cell-based; details: H3K18Ac in-cell western, HB-CLS-2 cells; read-out: CREBBP ICW IC50
assayReadout: IC50 (µM)

A: CCn1ncc(CN(CCO)C(=O)c2nc(-c3cccc(Cl)c3)nc3ccc(Cl)cc23)c1C [Compound 346]
B: Cc1n[nH]c(C)c1CN(C)C(=O)c1nc(-c2cccc(Cl)c2)nc2ccc(Cl)cc12 [Compound 248]
C: CCn1ncc(CN(C)C(=O)c2cc(-c3ccccc3Cl)nc3c(C)cc(Cl)cc23)c1C [Compound 350]
Request: # rank by IC50, ascending (min first) Please write the labels in the order that was asked for.
Result: A, C, B
